- tgt: T1, scHGF β-chain (zymogen-like HGF β, residues Asn479 to Ser728, R494E, C-terminal His-tag) (human, UniProt P14210 479-728)
- T1 construct: Expressed in insect cells; also called zHGF β; zymogen-like form of HGF β; not shown: C-terminal His-tag
- assay_text: BLI (OctetRed) scHGF β activation/Met binding assay: peptide titrated into 0.5 µM scHGF β over biotinylated Met Sema/PSI on streptavidin tips; steady-state single-site fit
Where no end group is shown, it is not given here. [ ]: non-standard residue; d: D form. Hyp = O=C(O)[C@@H]1C[C@@H](O)CN1
Kd values by entry
attribute_measured: Kd (µM)

• IVDGYPWWMDV-NH2 [IVDG.14 peptide] = 85
• IVGGY[Hyp]WWMDV-NH2 (Printed as I V G G Y hyP W W M D V) [IVhyP.14 peptide] = 14
• IV[dD]GYPWWMDV-NH2 (Printed as I V d G Y P W W M D V, d = D-aspartic acid) [IVdG.14 peptide] = 21
• IIGGY[Hyp]WWMDV-NH2 (Printed as I I G G Y hyP W W M D V) [IIhyP.14 peptide] = 5
